So I've got a bunch of compounds here, and I need their IC50 values.
System: E. coli BW25113 ΔtolC growth inhibition, OD615
Assay remarks: growth inhibitors of E. coli tolC mutant, dose response, strain BW25113 ΔtolC::kan (AID 617);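 further: growth read after 20 h at 37 °C with compound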

Determine its reported IC50: COc1ccccc1-c1cc(C(=O)NC(C)c2ccccc2)no1 (configuration not stated)
37.7 µM

Determine its reported IC50: `Cc1cc(Nc2ccccc2)n(-c2nc3ccccc3[nH]2)n1`
4.9 µM

Determine its reported IC50: `Cc1ccc(O)c(C(=O)CC(=O)c2cccc(F)c2)c1`
11.6 µM

Determine its reported IC50: `COC(=O)c1ccc(OC)c(CSc2nnc(COc3ccccc3)o2)c1`
23.1 µM

Determine its reported IC50: CC1Oc2ccccc2N(Cc2ccccc2Cl)C1=O (configuration not stated)
27.9 µM

Determine its reported IC50: `Cn1c(=O)c2c(SCc3cccnc3)nc(CC(C)(C)C)nc2n(C)c1=O`
8.18 µM

Determine its reported IC50: O=C1Nc2ccccc2C12OCC(COc1ccc(Cl)cc1)O2 (configuration not stated)
17.4 µM

###

So I've got a bunch of molecules here, and I need their pIC50 values.
System: E. coli BW25113 ΔtolC growth inhibition, OD615
Assay remarks: growth inhibitors of E. coli tolC mutant, dose response, strain BW25113 ΔtolC::kan (AID 617);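 further: growth read after 20 h at 37 °C with compound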
Remember, pIC50 is on a log scale: it is -log10 of the molar concentration.

Determine its reported pIC50: `O=C(CC1CCCCC1)c1c(O)c2ccccc2oc1=O`
5.76

Determine its reported pIC50: `COc1ccc2[nH]c3c(=O)n(CCCCC(=O)N4CCC(C(N)=O)CC4)c(=S)[nH]c3c2c1`
4.97

Determine its reported pIC50: `CCc1cc2c(N3CCN(c4ccccc4)CC3)ncnc2s1`
4.87

Determine its reported pIC50: COc1cccc(N2CCN(CC(=O)Nc3nc4c(s3)CC(C)CC4)CC2)c1 (stereo not given)
4.98

Determine its reported pIC50: `O=C(Nc1ccn(Cc2ccc(Cl)cc2)n1)c1ccc2c(c1)OCO2`
5.14

###

Tested on: E. coli BW25113 ΔtolC growth inhibition, OD615
Assay remarks: growth inhibitors of E. coli tolC mutant, dose response, strain BW25113 ΔtolC::kan (AID 617);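 further: growth read after 20 h at 37 °C with compound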
Readout name: IC50

Determine its reported IC50: `O=C(c1ccc(COc2ccccc2Cl)o1)N1CCN(c2ccccc2)CC1`
8.64 µM

Determine its reported IC50: `CCOc1ccc(Nc2cc(C)nc(-n3nc(C)cc3C)n2)cc1`
4.19 µM

Determine its reported IC50: Cc1ccc(-c2nnc(SCC(=O)N3CC(C)CC(C)C3)o2)cc1C (stereo not given)
12.9 µM

Determine its reported IC50: `C(=C\c1ccccc1)/CSc1nnc(-c2ccccn2)n1Cc1ccco1`
12 µM

Determine its reported IC50: COC(=O)c1[nH]c2cccc(OC)c2c1NC(=O)CN1CC2(C)CC1CC(C)(C)C2 (stereo not given)
38.8 µM

Determine its reported IC50: `COC(=O)c1ccc(CSc2nc3ccccc3o2)cc1`
20.2 µM

Determine its reported IC50: `Cn1c(NC(=O)c2ccccc2NC(=O)C(C)(C)C)nc2ccccc21`
9.13 µM

Determine its reported IC50: `O=C(c1cccs1)N(Cc1nc2sc3c(c2c(=O)[nH]1)CCCC3)C1CCCC1`
9.95 µM

Determine its reported IC50: CC1CN(c2oc(COc3ccc(Cl)cc3Cl)nc2C#N)CC(C)O1 (stereo not given)
10.3 µM

Determine its reported IC50: CC1CCCC(C)N1C(=O)CN1CCN(c2nc(-c3ccc(F)cc3)cs2)CC1 (stereo not given)
12 µM

Determine its reported IC50: Cc1ccc2c3c1C1(C(=O)N3C(C)(C)CC2C)C(C#N)=C(N)Oc2cc(O)ccc21 (stereo not given)
2.96 µM

Determine its reported IC50: `COc1cc(NS(=O)(=O)c2ccc(OC)c(C)c2C)c(OC)cc1Cl`
16.8 µM

Determine its reported IC50: `CC(C)Cn1c(=O)c(C(=O)Nc2cnccn2)c(O)c2ccccc21`
14 µM

Determine its reported IC50: `CSc1ccc(S(=O)(=O)Nc2ccc(N3CCOCC3)c(Cl)c2)cc1`
6.56 µM

Determine its reported IC50: `Cc1ccc2[nH]c(=O)c(CN(Cc3ccc4c(c3)OCO4)Cc3nnnn3C3CCCC3)cc2c1`
42.3 µM
